Reference source: patent EP0416393A1

UniProtKB P00797 measurements of IC50, listed per entry.
Sequence (P00797 67-406): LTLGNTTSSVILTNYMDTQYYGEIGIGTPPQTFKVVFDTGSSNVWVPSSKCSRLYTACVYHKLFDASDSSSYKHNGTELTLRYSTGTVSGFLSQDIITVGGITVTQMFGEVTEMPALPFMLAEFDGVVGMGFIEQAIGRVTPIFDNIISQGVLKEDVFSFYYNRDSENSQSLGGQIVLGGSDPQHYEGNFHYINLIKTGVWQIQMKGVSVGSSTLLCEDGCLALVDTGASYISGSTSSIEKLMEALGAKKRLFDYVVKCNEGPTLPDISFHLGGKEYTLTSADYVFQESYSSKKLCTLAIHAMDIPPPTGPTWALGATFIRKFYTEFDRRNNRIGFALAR
Your answer is read as nM, so omit the unit and give the number.

May I ask what IC50 has been recorded for CC(C)[C@@H](O)C(F)(F)[C@H](O)[C@H](CC1CCCCC1)NC(=O)[C@H](Cc1cscn1)NC(=O)[C@@H](CC(=O)N1CCN(C)CC1)Cc1ccccc1 [Example 93] ? 1.5

And for CC(C)[C@@H](O)C(F)(F)[C@H](O)[C@H](CC1CCCCC1)NC(=O)C(Cc1cnc[nH]1)NC(=O)C(Cc1ccc(O)cc1)N(C)C(=O)CC(C)(C)NC(=O)OCc1ccccc1 (stereo partly drawn) [Example 80] ? 1

What would you report for CC(C)C[C@H](NC(=O)[C@H](Cc1ccccc1)NC(=O)OC(C)(C)C)C(=O)N[C@@H](CC1CCCCC1)[C@@H](O)C(F)(F)[C@H](O)C(C)C [Example 60] ? 0.64

Try this compound too: CC(O)C(F)(F)C(O)C(CC1CCCCC1)NC(=O)C(Cc1c[nH]cn1)NC(=O)C(Cc1ccccc1)NC(=O)OC(C)(C)C (stereo not drawn) [Example 78] 2.5

Would you kindly repeat that for CC(C)C(O)C(F)(F)C(O)C(CC1CCCCC1)NC(=O)C(Cc1c[nH]cn1)NC(=O)C(=Cc1ccccc1)CC(=O)N1CCOCC1 (stereo not drawn) [Example 87] ? 5.2

Now try CC(C)[C@@H](O)C(F)(F)[C@H](O)[C@H](CC1CCCCC1)NC(=O)[C@H](Cc1cscn1)NC(=O)[C@@H](CC(=O)N(C)CCn1cccn1)Cc1ccccc1 [Example 105] . 0.35

Can you handle CC(C)[C@@H](O)C(F)(F)[C@H](O)[C@H](CC1CCCCC1)NC(=O)[C@H](Cc1c[nH]cn1)NC(=O)[C@@H](CC(=O)N1CCOCC1)Cc1ccccc1 [Example 83] next? 1.5

Also CC(C)[C@@H](O)C(F)(F)[C@H](O)[C@H](CC1CCCCC1)NC(=O)[C@H](Cc1c[nH]cn1)NC(=O)[C@H](Cc1ccccc1)NC(=O)OC(C)(C)C [Example 77] , if possible. 1.2

Next record, please: CC(C)CC(NC(=O)C(Cc1ccccc1)NC(=O)OC(C)(C)C)C(=O)NC(CC1CCCCC1)C(=O)C(F)(F)C(=O)C(C)C (stereo not drawn) [Example 98] 0.69
